tested on: sole of the rat paws; assay: Measurement of skin lesion (erythema) on rat paw; format: in vivo, Sprague Dawley rats; conditions: bile acid single composition 7.5% (w/v);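 note: grades − to ++++ mean no to extremely severe erythema versus before injection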
ASSAY READOUT: grade of skin lesion (erythema), 2 hours after administration

RECORD SMILES: C[C@H](CCC(=O)O)[C@H]1CC[C@H]2[C@@H]3[C@@H](O)C[C@@H]4C[C@H](O)CC[C@]4(C)[C@H]3CC[C@]12C
DATA VALUE: ++++

RECORD SMILES: C[C@H](CCC(=O)O)[C@H]1CC[C@H]2[C@@H]3C[C@H](O)[C@@H]4C[C@H](O)CC[C@]4(C)[C@H]3CC[C@]12C
DATA VALUE: ++++

RECORD SMILES: C[C@H](CCC(=O)NCC(=O)O)[C@H]1CC[C@H]2[C@@H]3[C@H](O)C[C@@H]4C[C@H](O)CC[C@]4(C)[C@H]3C[C@H](O)[C@]12C
DATA VALUE: ++

RECORD SMILES: C[C@H](CCC(=O)NCCS(=O)(=O)O)[C@H]1CC[C@H]2[C@@H]3[C@H](O)C[C@@H]4C[C@H](O)CC[C@]4(C)[C@H]3C[C@H](O)[C@]12C
DATA VALUE: ++

Incoming: Tell me its grade of skin lesion (erythema), 2 hours after administration given C[C@H](CCC(=O)NCCS(=O)(=O)O)[C@H]1CC[C@H]2[C@@H]3[C@@H](O)C[C@@H]4C[C@H](O)CC[C@]4(C)[C@H]3CC[C@]12C as the entry.
Outgoing: −

Incoming: Give the reported value of grade of skin lesion (erythema), 2 hours after administration for this record: C[C@H](CCC(=O)O)[C@H]1CC[C@H]2[C@@H]3CC[C@@H]4C[C@H](O)CC[C@]4(C)[C@H]3C[C@H](O)[C@]12C
Outgoing: ++++

====

test system: sole of the rat paws; assay: Measurement of skin lesion (erythema) on rat paw; type: in vivo, Sprague Dawley rats; conditions: bile acid single composition 2.5% (w/v);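 note: grades − to ++++ mean no to extremely severe erythema versus before injection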
ASSAY READOUT: grade of skin lesion (erythema), 1 hour after administration

MOLECULE: C[C@H](CCC(=O)NCCS(=O)(=O)O)[C@H]1CC[C@H]2C3CC[C@@H]4C[C@H](O)CC[C@]4(C)[C@H]3C[C@H](O)[C@]12C (stereo partly drawn)
DATA VALUE: +++

MOLECULE: C[C@H](CCC(=O)O)[C@H]1CC[C@H]2[C@@H]3CC[C@@H]4C[C@H](O)CC[C@]4(C)[C@H]3C[C@H](O)[C@]12C
DATA VALUE: ++++

MOLECULE: C[C@H](CCC(=O)O)[C@H]1CC[C@H]2[C@@H]3[C@@H](O)C[C@@H]4C[C@H](O)CC[C@]4(C)[C@H]3CC[C@]12C
DATA VALUE: ++

====

test system: tissues of the injected area (rat paw); assay: H&E staining histological test (inflammation) of injected rat paw; type: in vivo, Sprague Dawley rats; conditions: rats sacrificed at 3 hours, injected paw

COMPOUND: C[C@H](CCC(=O)NCCS(=O)(=O)O)[C@H]1CC[C@H]2[C@@H]3[C@@H](O)C[C@@H]4C[C@H](O)CC[C@]4(C)[C@H]3CC[C@]12C
degree of inflammation (H&E) in words: Mild
//
COMPOUND: C[C@H](CCC(=O)O)[C@H]1CC[C@H]2[C@@H]3[C@H](O)C[C@@H]4C[C@H](O)CC[C@]4(C)[C@H]3CC[C@]12C
degree of inflammation (H&E) in words: Moderate
//
COMPOUND: C[C@H](CCC(=O)NCC(=O)O)[C@H]1CC[C@H]2[C@@H]3CCC4C[C@H](O)CC[C@]4(C)[C@H]3C[C@H](O)[C@]12C (stereo partly shown)
degree of inflammation (H&E) in words: Moderate
//
COMPOUND: C[C@H](CCC(=O)NCCS(=O)(=O)O)[C@H]1CC[C@H]2C3CC[C@@H]4C[C@H](O)CC[C@]4(C)[C@H]3C[C@H](O)[C@]12C (stereo partly shown)
degree of inflammation (H&E) in words: Moderate

====

Each entry below carries its reported bile acid concentration at which stable injectable preparations can be made.
experiment: Formulation stability of PPC injectable preparations: property, transparency, particle size, pH; conditions: based on PPC 5.0%

Study these solved cases before continuing.
COMPOUND: C[C@H](CCC(=O)O)[C@H]1CC[C@H]2[C@@H]3[C@@H](O)C[C@@H]4C[C@H](O)CC[C@]4(C)[C@H]3CC[C@]12C [UDCA]
DATA VALUE: ≥ 2.7%

COMPOUND: C[C@H](CCC(=O)O)[C@H]1CC[C@H]2[C@@H]3[C@H](O)C[C@@H]4C[C@H](O)CC[C@]4(C)[C@H]3CC[C@]12C [CDCA]
DATA VALUE: ≥ 2.2%

COMPOUND: C[C@H](CCC(=O)NCCS(=O)(=O)O)[C@H]1CC[C@H]2[C@@H]3[C@H](O)C[C@@H]4C[C@H](O)CC[C@]4(C)[C@H]3C[C@H](O)[C@]12C [TCA]
DATA VALUE: ≥ 2.5%

COMPOUND: C[C@H](CCC(=O)NCC(=O)O)[C@H]1CC[C@H]2[C@@H]3CCC4C[C@H](O)CC[C@]4(C)[C@H]3C[C@H](O)[C@]12C (stereo partly drawn) [GDCA]
DATA VALUE: ≥ 2.4%

COMPOUND: C[C@H](CCC(=O)NCCS(=O)(=O)O)[C@H]1CC[C@H]2C3CC[C@@H]4C[C@H](O)CC[C@]4(C)[C@H]3C[C@H](O)[C@]12C (stereo partly drawn) [TDCA]
DATA VALUE: ≥ 2.3%

We now examine a further compound.
Incoming: Please list bile acid concentration at which stable injectable preparations can be made recorded for the compound C[C@H](CCC(=O)NCC(=O)O)[C@H]1CC[C@H]2[C@@H]3[C@H](O)C[C@@H]4C[C@H](O)CC[C@]4(C)[C@H]3C[C@H](O)[C@]12C [GCA]
Outgoing: ≥ 2.2%

====

test system: sole of the rat paws; test: Measurement of skin lesion (erythema) on rat paw; assay type: in vivo, Sprague Dawley rats; conditions: bile acid single composition 1.0% (w/v);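 note: grades − to ++++ mean no to extremely severe erythema versus before injection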
ASSAY READOUT: grade of skin lesion (erythema), 2 hours after administration

Examples with answers:
COMPOUND: C[C@H](CCC(=O)NCCS(=O)(=O)O)[C@H]1CC[C@H]2[C@@H]3[C@@H](O)C[C@@H]4C[C@H](O)CC[C@]4(C)[C@H]3CC[C@]12C
ASSAYED SYSTEM: sole of the rat paws
DATA VALUE: −

COMPOUND: C[C@H](CCC(=O)O)[C@H]1CC[C@H]2[C@@H]3[C@@H](O)C[C@@H]4C[C@H](O)CC[C@]4(C)[C@H]3CC[C@]12C
ASSAYED SYSTEM: sole of the rat paws
DATA VALUE: ++

COMPOUND: C[C@H](CCC(=O)O)[C@H]1CC[C@H]2[C@@H]3[C@H](O)C[C@@H]4C[C@H](O)CC[C@]4(C)[C@H]3CC[C@]12C
ASSAYED SYSTEM: sole of the rat paws
DATA VALUE: ++

COMPOUND: C[C@H](CCC(=O)NCC(=O)O)[C@H]1CC[C@H]2[C@@H]3[C@H](O)C[C@@H]4C[C@H](O)CC[C@]4(C)[C@H]3C[C@H](O)[C@]12C
ASSAYED SYSTEM: sole of the rat paws
DATA VALUE: −

COMPOUND: C[C@H](CCC(=O)O)[C@H]1CC[C@H]2[C@@H]3CC[C@@H]4C[C@H](O)CC[C@]4(C)[C@H]3C[C@H](O)[C@]12C
ASSAYED SYSTEM: sole of the rat paws
DATA VALUE: ++

Incoming: Check the records and state grade of skin lesion (erythema), 2 hours after administration for C[C@H](CCC(=O)NCCS(=O)(=O)O)[C@H]1CC[C@H]2[C@@H]3[C@H](O)C[C@@H]4C[C@H](O)CC[C@]4(C)[C@H]3C[C@H](O)[C@]12C
Outgoing: −

Incoming: Output grade of skin lesion (erythema), 2 hours after administration of C[C@H](CCC(=O)NCC(=O)O)[C@H]1CC[C@H]2[C@@H]3CCC4C[C@H](O)CC[C@]4(C)[C@H]3C[C@H](O)[C@]12C (stereo partly drawn)
Outgoing: ++

Incoming: For the compound C[C@H](CCC(=O)O)[C@H]1CC[C@H]2[C@@H]3C[C@H](O)[C@@H]4C[C@H](O)CC[C@]4(C)[C@H]3CC[C@]12C , give its measured grade of skin lesion (erythema), 2 hours after administration value.
Outgoing: +

Incoming: Give the reported value of grade of skin lesion (erythema), 2 hours after administration for this record: C[C@H](CCC(=O)NCCS(=O)(=O)O)[C@H]1CC[C@H]2C3CC[C@@H]4C[C@H](O)CC[C@]4(C)[C@H]3C[C@H](O)[C@]12C (stereo partly drawn)
Outgoing: ++
